These data points were gathered from paper PMC7169845.

test system: S. mansoni somules (schistosomula, post-infective larvae); assay: Phenotypic screen of S. mansoni somules (severity score); type: cell-based, Schistosoma mansoni; settings: 72 h, score 0-4
As shown below, each of these molecules has a reported SOMULE SEVERITY SCORES @ 10 µM, 72 value.
Quantity Name: SOMULE SEVERITY SCORES @ 10 µM, 72

INSERT INTO results (molecule, data_value) VALUES
  ('CCC(C)C(c1nc2ccccc2n1Cc1cn(-c2c(F)cccc2F)nn1)N1C(=O)c2ccccc2C1=O (centres unmarked)', 2),
  ('CCC(C)C(c1nc2ccccc2n1Cc1cn(-c2ccc(F)cc2F)nn1)N1C(=O)c2ccccc2C1=O (centres unmarked)', 2),
  ('CCC(C)C(c1nc2ccccc2n1Cc1cn(-c2ccccc2F)nn1)N1C(=O)c2ccccc2C1=O (centres unmarked)', 0),
  ('CC(c1nc2ccccc2n1Cc1cn(-c2ccc(F)cc2)nn1)N1C(=O)c2ccccc2C1=O (centres unmarked)', 0),
  ('Cc1ccc(-n2cc(Cn3c(C(C)N4C(=O)c5ccccc5C4=O)nc4ccccc43)nn2)cc1 (centres unmarked)', 0);

---

Quantity Name: melting point

INSERT INTO assay_data (compound, quantity_name, data_value) VALUES
  ('CCC(C)C(c1nc2ccccc2n1Cc1cn(-c2ccc(F)cc2F)nn1)N1C(=O)c2ccc(C)cc2C1=O (centres unmarked)', 'melting point', '89 to 91 °C'),
  ('Cc1ccc2c(c1)C(=O)N(C(C)c1nc3ccccc3n1Cc1c[nH]nn1)C2=O (centres unmarked)', 'melting point', '100 to 102 °C'),
  ('Cc1ccc2c(c1)C(=O)N(C(CC(C)C)c1nc3ccccc3n1Cc1cn(-c3ccccc3F)nn1)C2=O (centres unmarked)', 'melting point', '138 to 140 °C'),
  ('CC(c1nc2ccccc2n1Cc1cn(Cc2ccccc2)nn1)N1C(=O)c2ccccc2C1=O (centres unmarked)', 'melting point', '181 to 183 °C'),
  ('CCC(C)C(c1nc2ccccc2n1Cc1cn(-c2c(F)c(F)c(F)c(F)c2F)nn1)N1C(=O)c2ccccc2C1=O (centres unmarked)', 'melting point', '86 to 88 °C'),
  ('Cc1ccc2c(c1)C(=O)N(C(C)c1nc3ccccc3n1Cc1cn(-c3ccccc3F)nn1)C2=O (centres unmarked)', 'melting point', '185 to 187 °C'),
  ('CC(c1nc2ccccc2n1Cc1cn(-c2ccccc2F)nn1)N1C(=O)c2ccccc2C1=O (centres unmarked)', 'melting point', '186 to 188 °C'),
  ('Cc1ccc2c(c1)C(=O)N(C(CC(C)C)c1nc3ccccc3n1Cc1cn(-c3ccc(F)cc3)nn1)C2=O (centres unmarked)', 'melting point', '208 to 210 °C'),
  ('CC(c1nc2ccccc2n1Cc1cn(-c2c(F)c(F)c(F)c(F)c2F)nn1)N1C(=O)c2ccccc2C1=O (centres unmarked)', 'melting point', '215 to 217 °C'),
  ('CC(C)CC(c1nc2ccccc2n1Cc1cn(-c2ccc(C(F)(F)F)cc2)nn1)N1C(=O)c2ccccc2C1=O (centres unmarked)', 'melting point', '216 to 218 °C'),
  ('CC(c1nc2ccccc2n1Cc1cn(-c2ccccc2)nn1)N1C(=O)c2ccccc2C1=O (centres unmarked)', 'melting point', '187 to 189 °C'),
  ('CC(c1nc2ccccc2n1Cc1cn(-c2ccc(F)cc2F)nn1)N1C(=O)c2ccccc2C1=O (centres unmarked)', 'melting point', '195 to 197 °C'),
  ('Cc1ccc2c(c1)C(=O)N(C(CC(C)C)c1nc3ccccc3n1Cc1cn(-c3ccccc3)nn1)C2=O (centres unmarked)', 'melting point', '67 to 69 °C'),
  ('CC(C)C(c1nc2ccccc2n1Cc1cn(-c2c(F)cccc2F)nn1)N1C(=O)c2ccccc2C1=O (centres unmarked)', 'melting point', '91 to 93 °C'),
  ('CC(c1nc2ccccc2n1Cc1c[nH]nn1)N1C(=O)c2ccccc2C1=O (centres unmarked)', 'melting point', '97 to 99 °C'),
  ('CC(C)C(c1nc2ccccc2n1Cc1cn(-c2c(F)c(F)c(F)c(F)c2F)nn1)N1C(=O)c2ccccc2C1=O (centres unmarked)', 'melting point', '170 to 172 °C'),
  ('Cc1ccc2c(c1)C(=O)N(C(CC(C)C)c1nc3ccccc3n1Cc1c[nH]nn1)C2=O (centres unmarked)', 'melting point', '150 to 152 °C');

---

test system: S. mansoni adults; assay: Phenotypic screen of S. mansoni adult worms (severity score); type: cell-based, Schistosoma mansoni; details: 5 h, score 0 to 4
Quick reference for Adult Severity Score (10 µM) 5 h among some compounds
Quantity Name: Adult Severity Score (10 µM) 5 h

INSERT INTO measurements (compound, data_value) VALUES
  ('Cc1ccc(-n2cc(Cn3c(C(C)N4C(=O)c5ccccc5C4=O)nc4ccccc43)nn2)cc1 (centres unmarked) [6z]', 0),
  ('CCC(C)C(c1nc2ccccc2n1Cc1cn(-c2ccc(F)cc2F)nn1)N1C(=O)c2ccccc2C1=O (centres unmarked) [6w]', 2),
  ('CCC(C)C(c1nc2ccccc2n1Cc1cn(-c2c(F)cccc2F)nn1)N1C(=O)c2ccccc2C1=O (centres unmarked) [6x]', 0),
  ('CC(c1nc2ccccc2n1Cc1cn(-c2ccc(F)cc2)nn1)N1C(=O)c2ccccc2C1=O (centres unmarked) [6y]', 0),
  ('CCC(C)C(c1nc2ccccc2n1Cc1cn(-c2ccccc2F)nn1)N1C(=O)c2ccccc2C1=O (centres unmarked) [6v]', 0);

---

Tested on: S. mansoni adults
Assay: Phenotypic screen of S. mansoni adult worms (severity score)
Type: cell-based, Schistosoma mansoni
Settings: 24 h, score 0 to 4
Procedure: Functionalized Pht-based molecules were synthesized, and phenotypically screened at 10 µM as a function of time against S. Mansoni somules (up to 72 h) and adults (up to 24 h). The resulting phenotypes were classified using a previously described nomenclature that records the many non-exclusive changes (descriptors) that can occur in the parasite in response to chemical insult. […]
Quantity Name: Adult Severity Score (10 µM) 24 h

INSERT INTO results (compound, assayed_target, quantity_name, data_value) VALUES
  ('CCC(C)C(c1nc2ccccc2n1Cc1cn(-c2c(F)cccc2F)nn1)N1C(=O)c2ccccc2C1=O (centres unmarked)', 'S. mansoni adults', 'Adult Severity Score (10 µM) 24 h', 0),
  ('Cc1ccc(-n2cc(Cn3c(C(C)N4C(=O)c5ccccc5C4=O)nc4ccccc43)nn2)cc1 (centres unmarked)', 'S. mansoni adults', 'Adult Severity Score (10 µM) 24 h', 0),
  ('CCC(C)C(c1nc2ccccc2n1Cc1cn(-c2ccc(F)cc2F)nn1)N1C(=O)c2ccccc2C1=O (centres unmarked)', 'S. mansoni adults', 'Adult Severity Score (10 µM) 24 h', 2),
  ('CC(c1nc2ccccc2n1Cc1cn(-c2ccc(F)cc2)nn1)N1C(=O)c2ccccc2C1=O (centres unmarked)', 'S. mansoni adults', 'Adult Severity Score (10 µM) 24 h', 0),
  ('CCC(C)C(c1nc2ccccc2n1Cc1cn(-c2ccccc2F)nn1)N1C(=O)c2ccccc2C1=O (centres unmarked)', 'S. mansoni adults', 'Adult Severity Score (10 µM) 24 h', 0);

---

system: S. mansoni somules (schistosomula, post-infective larvae); assay: Phenotypic screen of S. mansoni somules (severity score); format: cell-based, Schistosoma mansoni; conditions: 24 h, score 0-4
Below: a set of entries, each annotated with reported SOMULE SEVERITY SCORES @ 10 µM, 24.
Quantity Name: SOMULE SEVERITY SCORES @ 10 µM, 24

INSERT INTO assay_data (molecule, data_value) VALUES
  ('CCC(C)C(c1nc2ccccc2n1Cc1cn(-c2ccc(F)cc2F)nn1)N1C(=O)c2ccccc2C1=O (centres unmarked) [6w]', 0),
  ('CCC(C)C(c1nc2ccccc2n1Cc1cn(-c2c(F)cccc2F)nn1)N1C(=O)c2ccccc2C1=O (centres unmarked) [6x]', 0),
  ('CC(c1nc2ccccc2n1Cc1cn(-c2ccc(F)cc2)nn1)N1C(=O)c2ccccc2C1=O (centres unmarked) [6y]', 0),
  ('Cc1ccc(-n2cc(Cn3c(C(C)N4C(=O)c5ccccc5C4=O)nc4ccccc43)nn2)cc1 (centres unmarked) [6z]', 1),
  ('CCC(C)C(c1nc2ccccc2n1Cc1cn(-c2ccccc2F)nn1)N1C(=O)c2ccccc2C1=O (centres unmarked) [6v]', 0);

---

Catalogue of melting point values
Quantity Name: melting point

INSERT INTO measurements (compound, data_value) VALUES
  ('Cc1ccc2c(c1)C(=O)N(C(C)c1nc3ccccc3n1Cc1cn(Cc3ccccc3)nn1)C2=O (stereo not shown)', '142 to 144 °C'),
  ('Cc1ccc2c(c1)C(=O)N(C(CC(C)C)c1nc3ccccc3n1Cc1cn(-c3c(F)cccc3F)nn1)C2=O (stereo not shown)', '71 to 73 °C'),
  ('CC(C)CC(c1nc2ccccc2n1Cc1cn(-c2c(F)c(F)c(F)c(F)c2F)nn1)N1C(=O)c2ccccc2C1=O (stereo not shown)', '100 to 102 °C'),
  ('Cc1ccc2c(c1)C(=O)N(C(C)c1nc3ccccc3n1Cc1cn(-c3ccc(F)cc3F)nn1)C2=O (stereo not shown)', '206 to 208 °C'),
  ('Cc1ccc2c(c1)C(=O)N(C(CC(C)C)c1nc3ccccc3n1Cc1cn(-c3ccc(C(F)(F)F)cc3)nn1)C2=O (stereo not shown)', '218 to 220 °C'),
  ('Cc1ccc2c(c1)C(=O)N(C(CC(C)C)c1nc3ccccc3n1Cc1cn(-c3ccc(F)cc3F)nn1)C2=O (stereo not shown)', '72 to 74 °C'),
  ('Cc1ccc2c(c1)C(=O)N(C(C)c1nc3ccccc3n1Cc1cn(-c3ccccc3)nn1)C2=O (stereo not shown)', '185 to 187 °C'),
  ('Cc1ccc2c(c1)C(=O)N(C(CC(C)C)c1nc3ccccc3n1Cc1cn(Cc3ccccc3)nn1)C2=O (stereo not shown)', '142 to 144 °C'),
  ('Cc1ccc2c(c1)C(=O)N(C(C)c1nc3ccccc3n1Cc1cn(-c3ccncc3)nn1)C2=O (stereo not shown)', '236 to 238 °C'),
  ('Cc1ccc2c(c1)C(=O)N(C(C)c1nc3ccccc3n1Cc1cn(-c3c(F)cccc3F)nn1)C2=O (stereo not shown)', '166 to 168 °C'),
  ('CCC(C)C(c1nc2ccccc2n1Cc1cn(-c2c(F)c(F)c(F)c(F)c2F)nn1)N1C(=O)c2ccc(C)cc2C1=O (stereo not shown)', '196 to 198 °C'),
  ('CCC(C)C(c1nc2ccccc2n1Cc1cn(-c2ccccc2F)nn1)N1C(=O)c2ccc(C)cc2C1=O (stereo not shown)', '114 to 116 °C'),
  ('CC(c1nc2ccccc2n1Cc1cn(-c2c(F)cccc2F)nn1)N1C(=O)c2ccccc2C1=O (stereo not shown)', '94 to 96 °C'),
  ('Cc1ccc2c(c1)C(=O)N(C(C)c1nc3ccccc3n1Cc1cn(-c3ccc(F)cc3)nn1)C2=O (stereo not shown)', '222 to 224 °C'),
  ('COc1ccc(-n2cc(Cn3c(C(CC(C)C)N4C(=O)c5ccc(C)cc5C4=O)nc4ccccc43)nn2)cc1 (stereo not shown)', '101 to 103 °C'),
  ('CCC(C)C(c1nc2ccccc2n1Cc1cn(-c2ccncc2)nn1)N1C(=O)c2ccccc2C1=O (stereo not shown)', '101 to 103 °C');
